- Measured target: T1, human IL-36R on cells (human, UniProt Q9HB29 20-575)
- T1 sequence (looked up): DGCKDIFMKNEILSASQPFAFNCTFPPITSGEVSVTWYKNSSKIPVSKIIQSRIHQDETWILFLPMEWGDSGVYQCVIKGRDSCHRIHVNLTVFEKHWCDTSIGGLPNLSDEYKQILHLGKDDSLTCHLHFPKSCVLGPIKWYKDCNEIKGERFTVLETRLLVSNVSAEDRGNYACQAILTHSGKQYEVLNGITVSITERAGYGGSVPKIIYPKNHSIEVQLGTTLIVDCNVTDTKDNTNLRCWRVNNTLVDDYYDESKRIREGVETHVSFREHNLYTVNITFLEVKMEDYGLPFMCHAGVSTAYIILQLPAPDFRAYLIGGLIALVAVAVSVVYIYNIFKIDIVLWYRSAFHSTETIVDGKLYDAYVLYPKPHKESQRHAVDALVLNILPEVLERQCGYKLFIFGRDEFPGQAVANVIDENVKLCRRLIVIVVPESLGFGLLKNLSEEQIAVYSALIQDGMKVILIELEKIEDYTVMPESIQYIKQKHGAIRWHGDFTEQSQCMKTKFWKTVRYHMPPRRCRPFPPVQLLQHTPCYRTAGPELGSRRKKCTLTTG
- Test name: cell-based or functional assay
Measured metric: IC90, IL-8 release, NCI/ADR-RES cells, trun-IL-36b (nM)
Report as a plain number; the unit nM is understood.

Please review the entries below; each comes with its answer.
Binder	Recorded number
antibody 73C5 (antibody, V domains shown, Mouse monoclonal from hybridoma; also called 73C5C10; Mouse 73C5) VH: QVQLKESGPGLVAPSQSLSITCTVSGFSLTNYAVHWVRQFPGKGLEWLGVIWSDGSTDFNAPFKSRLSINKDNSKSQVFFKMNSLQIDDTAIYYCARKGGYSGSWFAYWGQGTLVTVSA VL: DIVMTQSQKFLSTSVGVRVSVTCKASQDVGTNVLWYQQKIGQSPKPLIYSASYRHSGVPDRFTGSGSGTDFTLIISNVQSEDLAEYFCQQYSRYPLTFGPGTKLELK	0.6
antibody 33D10 (antibody, V domains shown, Mouse monoclonal from hybridoma; also called 33D10B12; Mouse 33D10) VH: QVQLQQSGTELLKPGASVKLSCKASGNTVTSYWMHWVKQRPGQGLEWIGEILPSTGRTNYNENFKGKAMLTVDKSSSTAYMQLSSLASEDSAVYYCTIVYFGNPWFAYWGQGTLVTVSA VL: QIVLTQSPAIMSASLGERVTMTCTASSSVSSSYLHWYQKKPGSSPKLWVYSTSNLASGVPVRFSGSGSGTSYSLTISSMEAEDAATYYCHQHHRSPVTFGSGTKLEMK	0.6

Next up:
Kindly note the recorded IC90, IL-8 release, NCI/ADR-RES cells, trun-IL-36b for antibody 81A1 (antibody, V domains shown, Mouse monoclonal from hybridoma; also called 81A1D1; Mouse 81A1) VH: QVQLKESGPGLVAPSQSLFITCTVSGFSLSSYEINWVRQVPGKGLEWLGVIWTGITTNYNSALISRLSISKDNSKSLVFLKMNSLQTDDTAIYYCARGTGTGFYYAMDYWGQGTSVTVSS VL: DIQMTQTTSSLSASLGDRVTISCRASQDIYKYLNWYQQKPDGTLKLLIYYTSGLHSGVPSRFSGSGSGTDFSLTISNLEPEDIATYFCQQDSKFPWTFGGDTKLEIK , which is 0.5
